Protein target, amino acids: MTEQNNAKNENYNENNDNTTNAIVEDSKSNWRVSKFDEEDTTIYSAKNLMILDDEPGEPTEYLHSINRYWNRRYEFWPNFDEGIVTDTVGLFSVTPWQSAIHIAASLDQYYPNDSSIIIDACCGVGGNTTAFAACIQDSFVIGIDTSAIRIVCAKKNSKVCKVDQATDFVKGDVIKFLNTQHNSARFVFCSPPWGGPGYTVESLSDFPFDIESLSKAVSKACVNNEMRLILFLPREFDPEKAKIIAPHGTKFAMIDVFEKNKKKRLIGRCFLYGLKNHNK
Measurement label: IC50

Challenge: Can you share its IC50? I mean this molecule: `Nc1ncnc2c1ncn2[C@@H]1O[C@H](CSCC[C@H](N)C(=O)O)[C@@H](O)[C@H]1O`
Response given: ~250 µM
